Reference for the values: paper PMC5540273

# System: WNK4;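 note: KINOMEscan kinase panel screen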
# run-parameters: concentration: 1 μM, replicates: in singlicate; n = 1
Quick list: %Inh per entry.
result-type: %Inh (%)

1. NCCC(NC(=O)c1cc(Br)c(-c2ccnc3[nH]ccc23)s1)c1ccccc1.O=C(O)C(F)(F)F.O=C(O)C(F)(F)F (centres unmarked) [GSK1307810] = 37
2. CS(=O)(=O)c1cccc(CNc2nc(Nc3ccc4c(c3)CCC(=O)N4)ncc2C(F)(F)F)c1 = 0
3. CN(c1ccc(NC(=O)N2CCN(CCCN3CCOCC3)CC2)cc1)c1ccnc(Nc2ccc(CS(C)(=O)=O)cc2)n1.Cl [GW830899] = 0
4. COC(=O)Nc1nc2ccc(Oc3ccc(CC(=O)Nc4cc(C(F)(F)F)ccc4F)cc3)cc2[nH]1 [GW680903] = 48
5. COc1cc(Nc2nccc(N3CCC(NS(=O)(=O)c4ccc(NC(C)=O)cc4)CC3)n2)cc(OC)c1OC [GSK1379825] = 23
6. COC(=O)Nc1nc2cc(Oc3ccc(NC(=O)Nc4cccc(SC)c4)cc3)ccc2[nH]1.Cl [GW697999] = 27
7. O=C(Nc1n[nH]c2cc(-c3cccs3)ccc12)C1CC1 [SB-731284] = 0
8. Cl.N#CCc1ccc(Nc2nccc(Nc3ccc(Oc4ccccc4)cc3)n2)cc1 [GW639905] = 6
